The entries below are paired with their reported viability, T/C.
- Tested on: 695427-040-R-J1-PDC complex spheroids, viability percent T/C
- ASSAY_INFO: Anticancer human tumor 695427-040-R-J1-PDC patient-derived colon adenocarcinoma cell line growth inhibition [GQUAD]
- CONDITIONS: second compound 0.1 µM; first compound 0.1 µM; stronger effect = lower value
Give your result in % as a bare value.

Below: 4 compounds and their reported viability, T/C.
| COMPOUND | STUDY_TARGET | MEASURE | EXPERIMENTAL_RESULT |
| --- | --- | --- | --- |
| CCCS(=O)(=O)Nc1ccc(F)c(C(=O)c2c[nH]c3ncc(-c4ccc(Cl)cc4)cc23)c1F + Cc1[nH]c2ccc(F)cc2c1-c1nc2c3cccnc3c3ncccc3c2[nH]1 | 695427-040-R-J1-PDC complex spheroids, viability percent T/C | viability, T/C | 99.2 |
| CC(C)n1c(=O)n(C)c2cnc3cc(F)c(-c4ccc(OCCCN5CCCCC5)nc4)cc3c21 + CN(C)c1ccc(Nc2c3ccc(NC(=O)CCN4CCCC4)cc3nc3cc(NC(=O)CCN4CCCC4)ccc23)cc1 | 695427-040-R-J1-PDC complex spheroids, viability percent T/C | viability, T/C | 97.3 |
| C=CC(=O)N1CCN(c2nc(=O)n(-c3c(C)ccnc3C(C)C)c3nc(-c4c(O)cccc4F)c(F)cc23)C(C)C1 (stereo not given) + Cc1cnc(CNC(=O)c2c(=O)c3ccc(N4CCCN(C)CC4)nc3n3c2sc2ccccc23)cn1 | 695427-040-R-J1-PDC complex spheroids, viability percent T/C | viability, T/C | 81.7 |
| C#Cc1c(F)ccc2cc(O)cc(-c3ncc4c(N5CC6CCC(C5)N6)nc(OCC56CCCN5CC(F)C6)nc4c3F)c12 (stereo not given) + Cc1cnc(CNC(=O)c2c(=O)c3ccc(N4CCCN(C)CC4)nc3n3c2sc2ccccc23)cn1 | 695427-040-R-J1-PDC complex spheroids, viability percent T/C | viability, T/C | 69.8 |

We next turn to a different compound, shown below.
Exam item: Find viability, T/C (695427-040-R-J1-PDC complex spheroids, viability percent T/C) for the entry O=c1[nH]cc(F)c(=O)[nH]1 + Cc1[nH]c2ccc(F)cc2c1-c1nc2c3cccnc3c3ncccc3c2[nH]1
Marked response: 77.3

----------
- System: 695427-040-R-J1-PDC complex spheroids, viability percent T/C
- ASSAY_INFO: Anticancer human tumor 695427-040-R-J1-PDC cell line growth inhibition [GQUAD]; active = viability on the fitted dose curve at most 10% of control; inactive = the rest;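 further: spheroids exposed to compounds for seven days before readout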
- CONDITIONS: second compound 0.316 µM; first compound 10 µM
Hi! Could you answer with just one of these? YES (active), NO (inactive)

| MOLECULE | CLASS_LABEL |
| --- | --- |
| C=CCn1c(=O)c2cnc(Nc3ccc(N4CCN(C)CC4)cc3)nc2n1-c1cccc(C(C)(C)O)n1 + Cc1[nH]c2ccc(F)cc2c1-c1nc2c3cccnc3c3ncccc3c2[nH]1 | NO |
| CC(C)(O)C1CCC(Nc2ccc3ncc(-c4cccc(C(F)(F)F)c4)n3n2)CC1 (stereo not given) + CN(C)c1ccc(Nc2c3ccc(NC(=O)CCN4CCCC4)cc3nc3cc(NC(=O)CCN4CCCC4)ccc23)cc1 | NO |
| COc1ncnc(C2CC2)c1-c1ncc2cnn(Cc3ccc(-c4nc(C(F)(F)F)cn4C(C)C)cc3)c2n1 + CN(C)c1ccc(Nc2c3ccc(NC(=O)CCN4CCCC4)cc3nc3cc(NC(=O)CCN4CCCC4)ccc23)cc1 | NO |
| Nc1ccn(C2OC(CO)C(O)C2(F)F)c(=O)n1 (stereo not given) + CN(C)c1ccc(Nc2c3ccc(NC(=O)CCN4CCCC4)cc3nc3cc(NC(=O)CCN4CCCC4)ccc23)cc1 | NO |
| Cc1cccc(N(C)C(=O)C2C(O)CCN2c2nc(C)cc(C(F)(F)F)c2C#N)c1 (stereo not given) + CN(C)c1ccc(Nc2c3ccc(NC(=O)CCN4CCCC4)cc3nc3cc(NC(=O)CCN4CCCC4)ccc23)cc1 | NO |

Exam item: Called result for Nc1ccn(C2OC(CO)C(O)C2(F)F)c(=O)n1 (stereo not given) + Cc1[nH]c2ccc(F)cc2c1-c1nc2c3cccnc3c3ncccc3c2[nH]1
Marked response: NO

Exam item: Can you look up the reported call for C=CCn1c(=O)c2cnc(Nc3ccc(N4CCN(C)CC4)cc3)nc2n1-c1cccc(C(C)(C)O)n1 + CN(C)c1ccc(Nc2c3ccc(NC(=O)CCN4CCCC4)cc3nc3cc(NC(=O)CCN4CCCC4)ccc23)cc1 for me?
Marked response: NO

Exam item: Please state the recorded outcome for this molecule: O=C(c1cc(Cc2n[nH]c(=O)c3ccccc23)ccc1F)N1CCN(C(=O)C2CC2)CC1 + Cc1cnc(CNC(=O)c2c(=O)c3ccc(N4CCCN(C)CC4)nc3n3c2sc2ccccc23)cn1
Marked response: NO

Exam item: What classification did O=C(NO)c1cnc(N2CCN(S(=O)(=O)c3ccc4ccccc4c3)CC2)nc1 + CN(C)c1ccc(Nc2c3ccc(NC(=O)CCN4CCCC4)cc3nc3cc(NC(=O)CCN4CCCC4)ccc23)cc1 end up with in this test?
Marked response: YES

----------
- Tested on: 695427-040-R-J1-PDC complex spheroids, viability percent T/C
- ASSAY_INFO: Anticancer human tumor 695427-040-R-J1-PDC cell line growth inhibition [GQUAD];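 further: spheroids exposed to compounds for seven days before readout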
- CONDITIONS: second compound 3.16 µM; first compound 1 µM; stronger effect = lower value
- Description: DNA G-quadruplex Stabilizer Agents in Combinations in Complex Spheroids A high-throughput screen of multi-cell type tumor spheroids was designed to identify active combinations of DNA G-quadruplex stabilizer agents and targeted small molecules. […] Compounds. […] If the clinical Cmax for an agent had not been determined, the highest concentration tested was 10 microM. […]
Mark true only for viability, T/C values smaller than 70%; exact matches and larger values are false.

| COMPOUND | CLASS_LABEL |
| --- | --- |
| O=C(c1cc(Cc2n[nH]c(=O)c3ccccc23)ccc1F)N1CCN(C(=O)C2CC2)CC1 + Cc1cnc(CNC(=O)c2c(=O)c3ccc(N4CCCN(C)CC4)nc3n3c2sc2ccccc23)cn1 | true |

Exam item: Here's an entry: C#Cc1c(F)ccc2cc(O)cc(-c3ncc4c(N5CC6CCC(C5)N6)nc(OCC56CCCN5CC(F)C6)nc4c3F)c12 (stereo not given) + Cc1cnc(CNC(=O)c2c(=O)c3ccc(N4CCCN(C)CC4)nc3n3c2sc2ccccc23)cn1 . Is its viability, T/C below 70%?
Marked response: true

Exam item: State whether 70% exceeds viability, T/C recorded for O=C(NO)c1cnc(N2CCN(S(=O)(=O)c3ccc4ccccc4c3)CC2)nc1 + Cc1[nH]c2ccc(F)cc2c1-c1nc2c3cccnc3c3ncccc3c2[nH]1 .
Marked response: false

Exam item: Lab log: compare recorded viability, T/C with 70%; is it strictly lower for CCCS(=O)(=O)Nc1ccc(F)c(C(=O)c2c[nH]c3ncc(-c4ccc(Cl)cc4)cc23)c1F + CN(C)c1ccc(Nc2c3ccc(NC(=O)CCN4CCCC4)cc3nc3cc(NC(=O)CCN4CCCC4)ccc23)cc1 ?
Marked response: false

Exam item: Say whether its viability, T/C is strictly beneath 70%. Entry: Cc1cccc(N(C)C(=O)C2C(O)CCN2c2nc(C)cc(C(F)(F)F)c2C#N)c1 (stereo not given) + CN(C)c1ccc(Nc2c3ccc(NC(=O)CCN4CCCC4)cc3nc3cc(NC(=O)CCN4CCCC4)ccc23)cc1
Marked response: false

----------
- Tested on: 695427-040-R-J1-PDC complex spheroids, viability percent T/C
- ASSAY_INFO: Anticancer human tumor 695427-040-R-J1-PDC cell line growth inhibition [GQUAD];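 further: spheroids exposed to compounds for seven days before readout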
- CONDITIONS: second compound 3.16 µM; first compound 0.1 µM; stronger effect = lower value
Rule: viability, T/C below 70% gives T. Equal to or above 70% gives F.

| COMPOUND | CLASS_LABEL |
| --- | --- |
| O=C(c1cc(Cc2n[nH]c(=O)c3ccccc23)ccc1F)N1CCN(C(=O)C2CC2)CC1 + CN(C)c1ccc(Nc2c3ccc(NC(=O)CCN4CCCC4)cc3nc3cc(NC(=O)CCN4CCCC4)ccc23)cc1 | F |
| COc1cccc2c1C(=O)c1c(O)c3c(c(O)c1C2=O)CC(O)(C(=O)CO)CC3OC1CC(N)C(O)C(C)O1 (centres undefined) + Cc1[nH]c2ccc(F)cc2c1-c1nc2c3cccnc3c3ncccc3c2[nH]1 | F |
| C#Cc1c(F)ccc2cc(O)cc(-c3ncc4c(N5CC6CCC(C5)N6)nc(OCC56CCCN5CC(F)C6)nc4c3F)c12 (centres undefined) + Cc1cnc(CNC(=O)c2c(=O)c3ccc(N4CCCN(C)CC4)nc3n3c2sc2ccccc23)cn1 | T |
| C=CC(=O)N1CCN(c2nc(=O)n(-c3c(C)ccnc3C(C)C)c3nc(-c4c(O)cccc4F)c(F)cc23)C(C)C1 (centres undefined) + Cc1cnc(CNC(=O)c2c(=O)c3ccc(N4CCCN(C)CC4)nc3n3c2sc2ccccc23)cn1 | T |
| CC1COCCN1c1cc(C2(S(C)(=N)=O)CC2)nc(-c2ccnc3[nH]ccc23)n1 (centres undefined) + Cc1[nH]c2ccc(F)cc2c1-c1nc2c3cccnc3c3ncccc3c2[nH]1 | F |

Exam item: Does the reported viability, T/C of COc1ccc([C@@H](O)c2cc(-c3ncnc4cc(N5CCOCC5)ccc34)c(F)cc2Cl)nn1 + CN(C)c1ccc(Nc2c3ccc(NC(=O)CCN4CCCC4)cc3nc3cc(NC(=O)CCN4CCCC4)ccc23)cc1 stay below 70%?
Marked response: F

Exam item: # TODO verify viability, T/C < 70% strictly for this compound: O=c1[nH]cc(F)c(=O)[nH]1 + Cc1cnc(CNC(=O)c2c(=O)c3ccc(N4CCCN(C)CC4)nc3n3c2sc2ccccc23)cn1
Marked response: T

Exam item: Below 70% on viability, T/C? Entry O=c1[nH]cc(F)c(=O)[nH]1 + CN(C)c1ccc(Nc2c3ccc(NC(=O)CCN4CCCC4)cc3nc3cc(NC(=O)CCN4CCCC4)ccc23)cc1
Marked response: F

Exam item: Find out if reported viability, T/C for Cc1cccc(N(C)C(=O)C2C(O)CCN2c2nc(C)cc(C(F)(F)F)c2C#N)c1 (centres undefined) + CN(C)c1ccc(Nc2c3ccc(NC(=O)CCN4CCCC4)cc3nc3cc(NC(=O)CCN4CCCC4)ccc23)cc1 is less than 70%
Marked response: F

Exam item: Dear colleague, could you confirm whether viability, T/C of COc1ncnc(C2CC2)c1-c1ncc2cnn(Cc3ccc(-c4nc(C(F)(F)F)cn4C(C)C)cc3)c2n1 + CN(C)c1ccc(Nc2c3ccc(NC(=O)CCN4CCCC4)cc3nc3cc(NC(=O)CCN4CCCC4)ccc23)cc1 falls below 70%? Thanks.
Marked response: F

Exam item: Input CC(=O)O[C@H]1C(=O)[C@@]2(C)[C@H]([C@H](OC(=O)c3ccccc3)[C@]3(O)C[C@H](OC(=O)[C@H](O)[C@@H](NC(=O)c4ccccc4)c4ccccc4)C(C)=C1C3(C)C)[C@]1(OC(C)=O)CO[C@@H]1C[C@@H]2O + CN(C)c1ccc(Nc2c3ccc(NC(=O)CCN4CCCC4)cc3nc3cc(NC(=O)CCN4CCCC4)ccc23)cc1 ; condition: viability, T/C strictly below 70%. Does it hold?
Marked response: F

Exam item: Lab note: confirm whether the reported viability, T/C for this compound is below 70%, equality not counting. compound: COc1cc(C2c3cc4c(cc3C(OC3OC5COC(C)OC5C(O)C3O)C3COC(=O)C23)OCO4)cc(OC)c1O (centres undefined) + Cc1[nH]c2ccc(F)cc2c1-c1nc2c3cccnc3c3ncccc3c2[nH]1
Marked response: F

Exam item: Here's an entry: CC1COCCN1c1cc(-c2ccnn2C)c2ccnc(-c3ccn[nH]3)c2n1 (centres undefined) + Cc1cnc(CNC(=O)c2c(=O)c3ccc(N4CCCN(C)CC4)nc3n3c2sc2ccccc23)cn1 . Is its viability, T/C below 70%?
Marked response: T

Exam item: Answer whether the compound CC(C)n1c(=O)n(C)c2cnc3cc(F)c(-c4ccc(OCCCN5CCCCC5)nc4)cc3c21 + Cc1cnc(CNC(=O)c2c(=O)c3ccc(N4CCCN(C)CC4)nc3n3c2sc2ccccc23)cn1 has viability, T/C strictly less than 70%
Marked response: T

Exam item: Hello, is viability, T/C of the following compound strictly smaller than 70%? CC(C)(O)C1CCC(Nc2ccc3ncc(-c4cccc(C(F)(F)F)c4)n3n2)CC1 (centres undefined) + CN(C)c1ccc(Nc2c3ccc(NC(=O)CCN4CCCC4)cc3nc3cc(NC(=O)CCN4CCCC4)ccc23)cc1
Marked response: F

Exam item: hey, is viability, T/C for C#Cc1c(F)ccc2cc(O)cc(-c3ncc4c(N5CC6CCC(C5)N6)nc(OCC56CCCN5CC(F)C6)nc4c3F)c12 (centres undefined) + Cc1[nH]c2ccc(F)cc2c1-c1nc2c3cccnc3c3ncccc3c2[nH]1 lower than 70% or not?
Marked response: F

Exam item: Take the compound CC(=O)O[C@H]1C(=O)[C@@]2(C)[C@H]([C@H](OC(=O)c3ccccc3)[C@]3(O)C[C@H](OC(=O)[C@H](O)[C@@H](NC(=O)c4ccccc4)c4ccccc4)C(C)=C1C3(C)C)[C@]1(OC(C)=O)CO[C@@H]1C[C@@H]2O + Cc1cnc(CNC(=O)c2c(=O)c3ccc(N4CCCN(C)CC4)nc3n3c2sc2ccccc23)cn1 and say whether its viability, T/C is less than 70%.
Marked response: T

Exam item: Is 70% strictly greater than the compound's reported viability, T/C? compound: CC1COCCN1c1cc(C2(S(C)(=N)=O)CC2)nc(-c2ccnc3[nH]ccc23)n1 (centres undefined) + CN(C)c1ccc(Nc2c3ccc(NC(=O)CCN4CCCC4)cc3nc3cc(NC(=O)CCN4CCCC4)ccc23)cc1
Marked response: F

Exam item: Hi there! Is viability, T/C for CC1COCCN1c1cc(-c2ccnn2C)c2ccnc(-c3ccn[nH]3)c2n1 (centres undefined) + CN(C)c1ccc(Nc2c3ccc(NC(=O)CCN4CCCC4)cc3nc3cc(NC(=O)CCN4CCCC4)ccc23)cc1 below 70%, do you know?
Marked response: F
